Tested on: Plasmodium falciparum
Assay: GSK_TCMDC: Inhibition of Plasmodium falciparum Dd2 in whole red blood cells, using parasite LDH activity as an index of growth. Test compounds present at 2uM
Assay type: functional
reported metric: Inhibition

>>> result("CCOC(=O)c1ccc(NC(=O)N[C@@H](Cc2ccccc2)C(=O)NC2CCN(Cc3ccc(O)cc3)C2)cc1 (stereo partly drawn)")
"2%"
>>> result("Cl.O=C(CNC1=NCCN1)Nc1ccc(NC(=O)Nc2ccc(NC(=O)CNC3=NCCN3)cc2)cc1")
"75%"
>>> result("CN(C1CCC(NC(=O)/C=C/c2ccccc2)CC1)C1CC2(CCN(C(=O)OC(C)(C)C)CC2)c2ccccc21 (stereo not drawn)")
"95%"

Would you mind telling me what Inhibition value was observed for COc1ccc(C(=O)CCc2ccc(O)cc2)cc1 ? 90%

Item under review: Cc1cc(C)cc(OCC(O)CN(CCN2CCOCC2)C(=O)Nc2ccc(Br)cc2)c1.O=C(O)C(F)(F)F (stereo not drawn) . Reported Inhibition? 19%

Entry Cc1cccc(C(=O)N2CCN(Cc3cccc(NC(=O)c4cccs4)c3)CC2)c1.O=C(O)C(F)(F)F : reported Inhibition = ? 95%

Fill in: Inhibition of CCN(CC)c1ccc(C=CC(=O)NCCN2CCC(N(C)C3CCCCC3C)CC2)cc1 (stereo not drawn) is ___ 18%

Item COCCN1CCC(N(Cc2ccc(-c3ccc(OC(F)(F)F)cc3)cc2)C(=O)Cn2c(CCc3cccc(F)c3F)cc(=O)c3ccccc32)CC1.O=C(O)C(O)C(O)C(=O)O has what recorded Inhibition? 92%

Could you share which Inhibition value was measured for O=C(Nc1cccc(-c2cccc(-c3nc4ccccc4[nH]3)c2)c1)c1csnn1 ? 27%

What value of measured Inhibition is listed for CCNC(=O)N[C@@H]1CN[C@@H](C#Cc2cc3c(Nc4ccc(OCc5cccc(F)c5)c(Cl)c4)ncnc3s2)C1 ? 27%

Report Inhibition for Cc1ccc2[nH]c(C)cc(=NN=CC=Cc3ccccc3)c2c1 please. 28%

Recorded Inhibition of COc1cc(OC)c(NC(=O)C2c3ccccc3C(=O)N(CC(C)C)C2c2cccs2)cc1Cl (stereo not drawn) , please. 100%

I would be grateful if you could share the reported Inhibition for Cc1c(F)cc(C(=O)NC2CC2)cc1-c1ccc2c(cnn2S(=O)(=O)c2cccs2)c1 . 68%

For the compound Cc1ccc2nc(N(CCCn3ccnc3)C(=O)C=Cc3cccs3)sc2c1.Cl , what Inhibition is on record? 57%

Endpoint output: Inhibition of COc1nc2c(CCN3CC[C@@H](NCc4cc(C#N)c5c(c4)CCO5)[C@@H](O)C3)ccnc2cc1F.Cl . Value? 35%

Fill blank: measured Inhibition of the compound CN1CCC[C@H]1COc1ccc(CN2CC[C@H](NC(=O)c3ccc(Cl)c(Cl)c3)C2)c2ccccc12.O=C(O)C(F)(F)F is ____. 98%

Data request, read-out Inhibition, for O=c1cc(NCCCNCc2cccc(OC(F)(F)F)c2)[nH]c2ccccc12 72%

Form field: reported Inhibition of CC(=O)N(C)C1CCN(Cc2cccc(-c3ccc(-c4nc5cc(C(F)(F)F)ccc5[nH]4)cc3)c2)C1.O=C(O)C(F)(F)F (stereo not drawn) 94%
